# test parameters: rat, in vivo, sc, 50 mg/kg
e = 2'-O-(2-methoxyethyl) (MOE); d = 2'-deoxy (DNA)
Let's look at some substances and their measured lymphocytes.
outcome measure: lymphocytes

INSERT INTO results (substance, value) VALUES
  ('ISIS 416825: 5-10-5 MOE gapmer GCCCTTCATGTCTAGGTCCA (sugars from the 5'' end e5 d10 e5, backbone and methylation of C not given here)', '3%'),
  ('ISIS 416925: MOE gapmer, nucleobases 1275 to 1318 of SEQ ID NO: 1 (Table 8) (antisense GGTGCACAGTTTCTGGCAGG; MOE gapmer, wing and gap sizes not given here)', '4%'),
  ('ISIS 416892: 3-14-3 MOE gapmer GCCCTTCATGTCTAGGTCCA (sugars from the 5'' end e3 d14 e3, backbone and methylation of C not given here)', '18%'),
  ('ISIS 416999: MOE gapmer, nucleobases 1275 to 1318 of SEQ ID NO: 1 (Table 8) (antisense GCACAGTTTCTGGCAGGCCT; MOE gapmer, wing and gap sizes not given here)', '3%'),
  ('ISIS 416826: 5-10-5 MOE gapmer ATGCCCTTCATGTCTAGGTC (sugars from the 5'' end e5 d10 e5, backbone and methylation of C not given here)', '5%'),
  ('ISIS 417003: MOE gapmer, nucleobases 1275 to 1318 of SEQ ID NO: 1 (Table 8) (antisense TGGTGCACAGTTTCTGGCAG; MOE gapmer, wing and gap sizes not given here)', '3%');
